measured-endpoint: melting point

Incoming: Can you share its melting point? I mean this molecule: Cc1cccc2c1CC(N1CCC3(CC1)C(=O)CCN3c1ccccc1)C2.Cl (racemic)
Outgoing: > 250 °C

Incoming: // repeat for CC(C)[C@H]1CC[C@H](N2CCC3(CC2)C(O)CCN3c2ccccc2)CC1.Cl (mixture of isomers) and report
Outgoing: > 250 °C

Incoming: // repeat for `CC(C)[C@H]1CC[C@@H](N2CCC3(CC2)ON=C(c2ccccc2)N3c2ccccc2)CC1.Cl` and report
Outgoing: 131 °C

Incoming: // repeat for `CC(C)[C@H]1CC[C@@H](N2CCC3(CC2)[C@@H](O)CCN3c2ccccc2)CC1.Cl` and report
Outgoing: > 250 °C

Incoming: // repeat for `CC(C)[C@H]1CC[C@@H](N2CCC3(CC2)[C@H](O)CCN3c2ccccc2)CC1.Cl` and report
Outgoing: > 250 °C

Incoming: // repeat for O=C(O)/C=C/C(=O)O.O=C1CCN(c2ccccc2)C12CCN([C@@H]1CC[C@H]3CCCc4cccc1c43)CC2 (racemic) and report
Outgoing: 144 °C

Incoming: // repeat for Cl.O=C1CCN(c2ccccc2)C12CCN([C@@H]1CC[C@@H]3CCCC[C@@H]3C1)CC2 (racemic) and report
Outgoing: 250 to 251 °C (dec.)

Incoming: // repeat for `Cl.O=C1CCN(c2ccccc2)C12CCN(C1Cc3ccccc3C1)CC2` and report
Outgoing: > 250 °C

Incoming: // repeat for COC1CCN(c2ccccc2)C12CCN(C1CCCCCCCCC1)CC2.Cl.Cl (racemic) and report
Outgoing: 170 °C (dec.)

Incoming: // repeat for CC(C)[C@H]1CC[C@@H](N2CCC3(CC2)C(O)CCN3c2ccccc2)CC1.Cl (mixture of isomers) and report
Outgoing: > 250 °C

Incoming: // repeat for `CC(C)[C@H]1CC[C@H](N2CCC3(CC2)C(=O)CCN3c2ccccc2)CC1.Cl` and report
Outgoing: 237 to 238 °C

Incoming: // repeat for Cl.Cl.OC1CCN(c2ccccc2)C12CCN(C1CCCCCCCC1)CC2 (racemic) and report
Outgoing: 170 °C (dec.)

Incoming: // repeat for COC1CCN(c2ccccc2)C12CCN([C@H]1CC[C@@H](C(C)C)CC1)CC2.Cl (mixture of isomers) and report
Outgoing: 214 to 215 °C

Incoming: // repeat for `O=C(O)/C=C/C(=O)O.O=C1CCN(c2ccccc2)C12CCN(C1CCCCCCCC1)CC2` and report
Outgoing: 185 °C

Incoming: // repeat for COC1CCN(c2ccccc2)C12CCN(C1CCCCCCCC1)CC2.O=C(O)/C=C/C(=O)O (racemic) and report
Outgoing: 196 °C (dec.)

Incoming: // repeat for Cl.Cl.OC1CCN(c2ccccc2)C12CCN(C1CCCCCCCCC1)CC2 (racemic) and report
Outgoing: 170 °C (dec.)

Incoming: // repeat for Cl.OC1CCN(c2ccccc2)C12CCN(C1Cc3ccccc3C1)CC2 (racemic) and report
Outgoing: > 250 °C

Incoming: // repeat for Cl.Cl.OC1CCN(c2ccccc2)C12CCN(C1CCCCCCC1)CC2 (racemic) and report
Outgoing: 173 °C (dec.)
